Recorded values, source the supplement of paper PMC5412046.

Test system: SB.mhdgc-1
Assay: area under the dose-response curve of % viability (trapezoidal, 11 doses) (% viability x log10 concentration); higher = less cytotoxic
Details: SB.mhdgc-1 (hereditary c.1380delA CDH1 gastric cancer)
Value type: area under the dose-response curve
Lab note: record just the number, no unit beside it.

Solved entries:
{"Molecule": "CC(=O)NCC(=O)N1[C@@H]2CC[C@H]1c1ccc(Nc3ncc(C(F)(F)F)c(NC4CCC4)n3)cc12 (top concentration 46.0829 µM)", "Result": 402}
{"Molecule": "COc1ccc(-n2c(C)c([N+](=O)[O-])c3ccc(O)cc32)cc1 [ID-8] (top concentration 46.0829 µM)", "Result": 475}
{"Molecule": "CCCCCCCCCCCCCCCCCCCCCCO [Docosanol] (top concentration 46.0829 µM)", "Result": 596}
{"Molecule": "N[C@@H](Cc1ccc(N(CCCl)CCCl)cc1)C(=O)O [Melphalan] (top concentration 46.0829 µM)", "Result": 350}

Exam item: Find the measured area under the dose-response curve: item O=C1NCCc2[nH]c(-c3ccncc3)cc21 (top concentration 46.0829 µM) , target or system SB.mhdgc-1.
Marked response: 472

Exam item: Same read-out for CCc1cc(-c2n[nH]c(C)c2-c2ccc3c(c2)OCCO3)c(O)cc1O (top concentration 46.0829 µM) ?
Marked response: 401

Exam item: Same read-out for CCn1c(-c2nonc2N)nc2cnc(Oc3cccc(NC(=O)c4ccc(OCCN5CCOCC5)cc4)c3)cc21 (top concentration 46.0829 µM) ?
Marked response: 479

Exam item: Same read-out for C[N+](C)([O-])CCNc1ccc(NCC[N+](C)(C)[O-])c2c1C(=O)c1c(O)ccc(O)c1C2=O [Banoxantrone] (top concentration 46.0829 µM) ?
Marked response: 483

Exam item: Same read-out for CCOc1cc(C(=O)Nc2ccc(Cl)c(-c3nc4ccccc4[nH]3)c2)cc(OCC)c1OCC [SANT-2] (top concentration 46.0829 µM) ?
Marked response: 389

Exam item: Same read-out for CCCCNc1cc(C(=O)O)cc([S+](N)(=O)[O-])c1Oc1ccccc1 [Bumetanide] (top concentration 46.0829 µM) ?
Marked response: 525

Exam item: Same read-out for Cc1cnc(C(=O)O)c[n+]1[O-] [Acipimox] (top concentration 46.0829 µM) ?
Marked response: 589

Exam item: Same read-out for C=CC(=O)Nc1cc2c(Nc3ccc(F)c(Cl)c3)ncnc2cc1OCCCN1CCOCC1 [Canertinib] (top concentration 46.0829 µM) ?
Marked response: 496

Exam item: Same read-out for CC(=O)SC[C@@H](C)C(=O)N1CCC[C@H]1C(=O)N[C@@H](Cc1ccccc1)C(=O)O [Alacepril] (top concentration 46.0829 µM) ?
Marked response: 599

Exam item: Same read-out for O=C(Nc1nc2cccc(-c3ccc(CN4CC[S+](=O)([O-])CC4)cc3)n2n1)C1CC1 [GPLG-0634] (top concentration 46.0829 µM) ?
Marked response: 525

Exam item: Same read-out for N=c1c2c(-c3ccccc3)c(-c3ccccc3)n(Cc3ccccc3)c2ncn1[C@H]1CC[C@H](O)CC1 (top concentration 46.0829 µM) ?
Marked response: 431

Exam item: Same read-out for CN(C)/[N+]([O-])=N/Oc1cc(ON[N+](=O)N2CCN(C(=O)c3cc(Cc4n[nH]c(=O)c5ccccc45)ccc3F)CC2)c([N+](=O)[O-])cc1[N+](=O)[O-] [JS-65-103] (top concentration 46.0829 µM) ?
Marked response: 480
